Reported values of Km for individual entries
- protocol.description: enzyme kinetic measurements with purified protein
- Type: biochemical
- measurement.setup: 0-1280 uM substrate, read-out: Km Quizalofop-P
Provide only the numeric value, understood in µM.

>  <molecule>
MON-HT51: engineered oxygenase protein, amino acid sequence SEQ ID NO:1 (protein) MHAALSPLSQRFERIAVQPLTGVLGAEITGVDLREPLSDSTWNEILDAFHTYQVIYFPGQAITNEQHIAFSRRFGPVDPVPLLKSIEGYPEVQMIRREANESGRVIGDDWHTDSSFLDAPPAAVVMRAIDVPEHGGDTGFLSMYTAYDALSDGLKKLISGLNVVHSATRVFGSLYQAQNRRFSNTSVKVMDVADGDRETVHPLVVTHPGSGRKGLYVNQVYCQRIEGMSEKESEPLLSFLFAHATKPEFTCRVRWKKDQVLVWDNLCTMHYAINDYHGQTRILHRTTVGGVRPAR

>  <Km / µM>
570

$$$$
>  <molecule>
MON-HT54: engineered oxygenase protein, amino acid sequence SEQ ID NO:9 (protein) MHAALSPLSQRFERIAVQPLTGVLGAEITGVDLREPLDDSTWNEILDAFHTYQVIYFPGQAITNEQHIAFSRRFGPVDPVPLLKSIEGYPEVQMIRREANESGRVLGDDWHTDSTFLDAPPAAVVMRAIDVPEHGGDTGFLSMYTAYDALSDGLKKLISGLNVVHSATRVFGSLYQAQNRRFSNTSVKVMDVADGDRETVHPLVVTHPGSGRKGLYVNQVYCQRIEGMSEKESEPLLSFLFAHATKPEFTCRVRWKKDQVVVWDNLCTMHYAINDYHGQTRILHRTTVGGVRPAR

>  <Km / µM>
560

$$$$

response.value for MON-HT55: engineered oxygenase protein, amino acid sequence SEQ ID NO:11 (protein) MHAALSPLSQRFERIAVQPLTGVLGAEITGVDLREPLDDSTWNEILDAFHTYQVIYFPGQAITNEQHIAFSRRFGPVDPVPLLKSIEGYPEVQMIRREANESGRVIGENWHTDSTFLDAPPAAVVMYAKEIPPYGGDTLFTSMYTAWETLSPTMQATIEGLNVVHSATRVFGSLYQAQNRRFSNTSVKVMDVDAGDRETVHPLVVTHPETGRKGLYVNQVYCQRIEGMSEKESEPLLSFLFAHATKPEFTCRVRWQEGDVLVWDNLCTQHYAVPDYAGKFRYLTRTTVGGVRPAR (field: Km) = 250
